# cAMP EC50 (assay 1) values compiled below
target: human glucagon receptor (human, UniProt P47871 26-477); experiment: cell-based or functional assay
Sequence (P47871 26-477): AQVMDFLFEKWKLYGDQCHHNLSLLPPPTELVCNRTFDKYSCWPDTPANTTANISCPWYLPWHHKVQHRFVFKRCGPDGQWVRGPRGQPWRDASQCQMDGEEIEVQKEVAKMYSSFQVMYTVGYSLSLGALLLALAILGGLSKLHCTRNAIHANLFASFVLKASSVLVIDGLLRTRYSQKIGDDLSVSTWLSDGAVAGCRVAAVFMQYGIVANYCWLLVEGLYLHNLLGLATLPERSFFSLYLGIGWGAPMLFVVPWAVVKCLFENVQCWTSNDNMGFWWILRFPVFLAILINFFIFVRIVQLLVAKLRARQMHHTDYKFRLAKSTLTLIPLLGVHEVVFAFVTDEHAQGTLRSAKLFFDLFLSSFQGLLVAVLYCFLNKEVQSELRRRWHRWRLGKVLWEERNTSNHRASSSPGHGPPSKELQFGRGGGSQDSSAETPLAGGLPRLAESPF
Ends that are not written are not given here. * marks the point of attachment. Palmitoyl = CCCCCCCCCCCCCCCC(=O)*
Give the value in nM but do not write nM after it.

binder	unitOfMeasure	cAMP EC50 (assay 1)
HSQGTFTSDYSKYLDSRRAQDFVQWLVAGGSGSGSG-NH2 [g402]	nM	0.0596
HSQGTFTSDYSKYLDSRRAQDFVQWLVAGGPSSGAPPPSK-NH2 [g319]	nM	0.0104
HSQGTFTSDYSKYLDSRRAQDFVQWLVAGGKNNRNNIAK-NH2 [g321]	nM	0.0279
HSQGTFTSDYSKYLDSRRAQDFVQWLVAGGPSSGAPPPSK(Palmitoyl)-NH2 [g320]	nM	0.0032
HSQGTFTSDYSKYLDSRRAQDFVQWLVAGGGGGG-NH2 [g315]	nM	0.00504

Ask | Given HSQGTFTSDYSKYLDSRRAQDFVQWLEAGG-NH2 [g840] , state its recorded cAMP EC50 (assay 1).
Reply | 0.0053

Ask | Field request: cAMP EC50 (assay 1) | item: HGQGTFTSDYSKYLDSKRAQDFVQWLVAGG (X17 = K(gE-palm); C-terminal amide) [G380]
Reply | 0.362

Ask | What value of measured cAMP EC50 (assay 1) is listed for HSQGTFTSDYSKKLDSERARDFVAWLVAGG (X13 = K(gE-palm) (Lys with palmitoyl on the epsilon nitrogen through a gamma glutamic acid linker); C-terminal amide) [G730] ?
Reply | 0.015

Ask | # cAMP EC50 (assay 1) lookup, item HSQGTFTSDYSKYLDSRRAQDFVQWLVAGGSSGGSS-NH2 [g316]
Reply | 0.0106

Ask | Request the reported cAMP EC50 (assay 1) associated with HSQGTFTSDYSKYLDSRRAQDFVQWLVAGGGGGGK-NH2 [g325]
Reply | 0.0103
